System: HCC-2998
assayName: NCI in vitro cancer screen, Colon Cancer
Format: cell-based, human
particulars: Homo sapiens; HCC-2998; read-out: LC50 (the source's name)
# label = Y if CC50 < 50 µM else N

{"columns": ["molecule", "measuredOn", "categoryLabel"],
 "data": [
  ["CC(C)=CCc1c(O)cc(/C=C/c2ccc(O)cc2)c(CC=C(C)C)c1O [USYDS6]", "HCC-2998", "Y"],
  ["CC(C)=CCc1c(O)cc(/C=C/c2ccc(O)c(O)c2)c(CC=C(C)C)c1O [USYDS7]", "HCC-2998", "Y"],
  ["COc1cc(/C=C/c2cc(O)cc(OCC=C(C)C)c2)ccc1O [USYDS2]", "HCC-2998", "Y"],
  ["COc1cc(O)cc(/C=C/c2ccc(O)c(O)c2)c1CC=C(C)C [USYDS9]", "HCC-2998", "N"],
  ["CC(C)=CCOc1cc(O)cc(/C=C/c2ccc(O)c(O)c2)c1 [USYDS4]", "HCC-2998", "N"],
  ["COc1cc(/C=C/c2cc(O)cc(OC)c2CC=C(C)C)ccc1O [USYDS1]", "HCC-2998", "Y"],
  ["COc1cc(/C=C/c2cc(O)c(CC=C(C)C)c(O)c2)ccc1O [USYDS13]", "HCC-2998", "N"]
]}

====

Test system: HCC-2998
assayName: NCI in vitro cancer screen, Colon Cancer
Assay type: cell-based, human
particulars: HCC-2998
readout: TGI

{"columns": ["molecule", "readout", "result"],
 "data": [
  ["CC(C)=CCOc1cc(O)cc(/C=C/c2ccc(O)c(O)c2)c1", "TGI", "19.0 µM"],
  ["COc1cc(/C=C/c2cc(O)cc(OC)c2CC=C(C)C)ccc1O", "TGI", "11.5 µM"],
  ["COc1cc(/C=C/c2cc(O)cc(OCC=C(C)C)c2)ccc1O", "TGI", "17.3 µM"],
  ["CC(C)=CCc1c(O)cc(/C=C/c2ccc(O)c(O)c2)c(CC=C(C)C)c1O", "TGI", "4.26 µM"],
  ["COc1cc(O)cc(/C=C/c2ccc(O)c(O)c2)c1CC=C(C)C", "TGI", "21.2 µM"],
  ["CC(C)=CCc1c(O)cc(/C=C/c2ccc(O)cc2)c(CC=C(C)C)c1O", "TGI", "8.78 µM"],
  ["COc1cc(/C=C/c2cc(O)c(CC=C(C)C)c(O)c2)ccc1O", "TGI", "30.6 µM"]
]}

====

# Lookup of reported log10(GI50) keyed by entry
Tested on: MCF7
assayName: NCI in vitro cancer screen, Breast Cancer
Type: cell-based, human
particulars: Homo sapiens, MCF7
readout: log10(GI50) (log10 of the value in nM)

{"columns": ["molecule", "log10(GI50)"],
 "data": [
  ["COc1cc(/C=C/c2cc(O)cc(OC)c2CC=C(C)C)ccc1O", 2.36],
  ["COc1cc(O)cc(/C=C/c2ccc(O)c(O)c2)c1CC=C(C)C", 3.45],
  ["CC(C)=CCc1c(O)cc(/C=C/c2ccc(O)cc2)c(CC=C(C)C)c1O", 3.60],
  ["CC(C)=CCOc1cc(O)cc(/C=C/c2ccc(O)c(O)c2)c1", 3.41],
  ["COc1cc(/C=C/c2cc(O)c(CC=C(C)C)c(O)c2)ccc1O", 2.83],
  ["COc1cc(/C=C/c2cc(O)cc(OCC=C(C)C)c2)ccc1O", 3.09],
  ["CC(C)=CCc1c(O)cc(/C=C/c2ccc(O)c(O)c2)c(CC=C(C)C)c1O", 3.32]
]}

====

Test system: MALME-3M
assayName: NCI in vitro cancer screen, Melanoma
Type: cell-based, human
particulars: MALME-3M
# label = yes if TGI < 30 µM else no

{"columns": ["molecule", "categoryLabel"],
 "data": [
  ["CC(C)=CCc1c(O)cc(/C=C/c2ccc(O)cc2)c(CC=C(C)C)c1O", "yes"],
  ["COc1cc(O)cc(/C=C/c2ccc(O)c(O)c2)c1CC=C(C)C", "no"],
  ["COc1cc(/C=C/c2cc(O)cc(OC)c2CC=C(C)C)ccc1O", "yes"],
  ["COc1cc(/C=C/c2cc(O)c(CC=C(C)C)c(O)c2)ccc1O", "no"],
  ["CC(C)=CCc1c(O)cc(/C=C/c2ccc(O)c(O)c2)c(CC=C(C)C)c1O", "yes"],
  ["COc1cc(/C=C/c2cc(O)cc(OCC=C(C)C)c2)ccc1O", "yes"]
]}

====

Test system: SK-OV-3
assayName: NCI in vitro cancer screen, Ovarian Cancer
Assay type: cell-based, human
particulars: SK-OV-3

{"columns": ["molecule", "unitOfMeasurement", "TGI"],
 "data": [
  ["CC(C)=CCc1c(O)cc(/C=C/c2ccc(O)cc2)c(CC=C(C)C)c1O", "µM", 27.1],
  ["CC(C)=CCc1c(O)cc(/C=C/c2ccc(O)c(O)c2)c(CC=C(C)C)c1O", "µM", 19.4],
  ["COc1cc(/C=C/c2cc(O)cc(OCC=C(C)C)c2)ccc1O", "µM", 14.9],
  ["CC(C)=CCOc1cc(O)cc(/C=C/c2ccc(O)c(O)c2)c1", "µM", 57.0],
  ["COc1cc(/C=C/c2cc(O)cc(OC)c2CC=C(C)C)ccc1O", "µM", 11.6],
  ["COc1cc(O)cc(/C=C/c2ccc(O)c(O)c2)c1CC=C(C)C", "µM", 5.12],
  ["COc1cc(/C=C/c2cc(O)c(CC=C(C)C)c(O)c2)ccc1O", "µM", 36.2]
]}

====

System: MOLT-4
assayName: NCI in vitro cancer screen, Leukemia
Type: cell-based, human
particulars: MOLT-4
readout: TGI (µM)

{"columns": ["molecule", "unitOfMeasurement", "numericResult"],
 "data": [
  ["CC(C)=CCOc1cc(O)cc(/C=C/c2ccc(O)c(O)c2)c1", "µM", 21.6],
  ["COc1cc(/C=C/c2cc(O)cc(OCC=C(C)C)c2)ccc1O", "µM", 28.3],
  ["COc1cc(/C=C/c2cc(O)c(CC=C(C)C)c(O)c2)ccc1O", "µM", 13.7],
  ["COc1cc(O)cc(/C=C/c2ccc(O)c(O)c2)c1CC=C(C)C", "µM", 6.77],
  ["CC(C)=CCc1c(O)cc(/C=C/c2ccc(O)c(O)c2)c(CC=C(C)C)c1O", "µM", 5.19],
  ["CC(C)=CCc1c(O)cc(/C=C/c2ccc(O)cc2)c(CC=C(C)C)c1O", "µM", 4.27],
  ["COc1cc(/C=C/c2cc(O)cc(OC)c2CC=C(C)C)ccc1O", "µM", 12.3]
]}

====

# Lookup of reported CC50 keyed by entry
Test system: OVCAR-4
assayName: NCI in vitro cancer screen, Ovarian Cancer
Format: cell-based, human
particulars: Homo sapiens, OVCAR-4; read-out: LC50 (the source's name)

{"columns": ["molecule", "valueModifier", "CC50 / µM"],
 "data": [
  ["CC(C)=CCc1c(O)cc(/C=C/c2ccc(O)c(O)c2)c(CC=C(C)C)c1O", "=", 66.8],
  ["COc1cc(O)cc(/C=C/c2ccc(O)c(O)c2)c1CC=C(C)C", ">", 100],
  ["CC(C)=CCc1c(O)cc(/C=C/c2ccc(O)cc2)c(CC=C(C)C)c1O", "=", 43.5],
  ["COc1cc(/C=C/c2cc(O)c(CC=C(C)C)c(O)c2)ccc1O", ">", 100],
  ["COc1cc(/C=C/c2cc(O)cc(OC)c2CC=C(C)C)ccc1O", "=", 52],
  ["COc1cc(/C=C/c2cc(O)cc(OCC=C(C)C)c2)ccc1O", ">", 100],
  ["CC(C)=CCOc1cc(O)cc(/C=C/c2ccc(O)c(O)c2)c1", ">", 100]
]}

====

System: NCI-H322M
assayName: NCI in vitro cancer screen, Non-Small Cell Lung Cancer
Format: cell-based, human
particulars: Homo sapiens
# Lookup of reported log10(GI50) keyed by entry
readout: log10(GI50) (log10 of the value in µM)

{"columns": ["molecule", "log10(GI50)"],
 "data": [
  ["COc1cc(/C=C/c2cc(O)c(CC=C(C)C)c(O)c2)ccc1O", 0.77],
  ["COc1cc(/C=C/c2cc(O)cc(OCC=C(C)C)c2)ccc1O", 0.98],
  ["CC(C)=CCc1c(O)cc(/C=C/c2ccc(O)cc2)c(CC=C(C)C)c1O", 0.06],
  ["CC(C)=CCc1c(O)cc(/C=C/c2ccc(O)c(O)c2)c(CC=C(C)C)c1O", 0.72],
  ["COc1cc(O)cc(/C=C/c2ccc(O)c(O)c2)c1CC=C(C)C", -0.12],
  ["COc1cc(/C=C/c2cc(O)cc(OC)c2CC=C(C)C)ccc1O", 1.07],
  ["CC(C)=CCOc1cc(O)cc(/C=C/c2ccc(O)c(O)c2)c1", 1.11]
]}
